Values from patent US12116637B2

Each entry below carries its reported Wild Type Viability.
test system: UT42^Aα-P179R cells expressing wild type Aα; test: High-throughput compound screening, CellTiter-Glo viability, wild type corrected cells; conditions: 10 μM, 72 hrs, CellTiter-Glo, normalized to control wells; one biological replicate
The reply should read as a number followed by its unit.

The following compounds have reported results that may help.
Cn1cnc([N+](=O)[O-])c1Sc1ncnc2nc[nH]c12 | 55%
Nc1ncn([C@@H]2O[C@H](CO)[C@@H](O)[C@H]2O)c(=O)n1 [5-Azacytidine] | 77%

Per the records, this compound ( NC(=O)NO [Hydroxyurea] ) has Wild Type Viability equal to 120%

The reported value for Nc1ncn([C@@H]2O[C@H](CO)[C@@H](O)[C@H]2O)c(=O)n1 [Azacitidine] in terms of Wild Type Viability is 54%

###

// reported viability at 10 µM per item
tested on: UT42^Aα-P179R cells expressing EGFP (mutant); test: High-throughput compound screening, CellTiter-Glo viability, mutant cells; settings: Homo sapiens, 72 h, read-out: Mutant Viability, 10 μM, 72 hrs, CellTiter-Glo, normalized to control wells; one biological replicate
# unit: % | format: bare number

Nc1nc(F)nc2c1ncn2[C@@H]1O[C@H](CO)[C@@H](O)[C@@H]1O | 107
NC(=S)N/N=C/c1ncccc1N | 36
Cn1cnc([N+](=O)[O-])c1Sc1ncnc2nc[nH]c12 | 49
COc1nc(N)nc2c1ncn2[C@@H]1O[C@H](CO)[C@@H](O)[C@@H]1O | 107

Entry under test: Nc1ccn([C@@H]2O[C@H](CO)[C@@H](O)C2(F)F)c(=O)n1 . Its viability at 10 µM was 46

Looking up Nc1nc(Cl)nc2c1ncn2[C@@H]1O[C@H](CO)[C@@H](O)[C@@H]1F , I see its viability at 10 µM listed as 25

Documented viability at 10 µM of Nc1ncn([C@H]2C[C@H](O)[C@@H](CO)O2)c(=O)n1 : 64

// recorded viability at 10 µM for Nc1nc2c(ncn2CCC(CO)CO)c(=O)[nH]1 : 103

###

tested on: UT42^Aα-P179R cells expressing EGFP (mutant); experiment: High-throughput compound screening, CellTiter-Glo viability, mutant cells; conditions: Homo sapiens, 72 h, read-out: Mutant Viability, 10 μM, 72 hrs, CellTiter-Glo, normalized to control wells; one biological replicate
Catalogue of molecules with associated viability at 10 µM
Give just the numeric value; % need not be written.

Sample answers from the record:
Nc1nc(Cl)nc2c1ncn2[C@H]1C[C@H](O)[C@@H](CO)O1 | 43
O=c1[nH]cc(F)c(=O)[nH]1 | 103
Nc1ccn([C@@H]2O[C@H](CO)[C@@H](O)[C@@H]2O)c(=O)n1 | 73
NC(=O)NO [Hydroxyurea] | 102

Field: next molecule
Lab note: measured viability at 10 µM of CCCCCCNC(=O)n1cc(F)c(=O)[nH]c1=O was 103
